biological target: bovine heart mitochondrial complex I (Bos taurus, UniProt P03887+P17694+P42026); experiment: Complex I (NADH-Q1 oxidoreductase) inhibition in submitochondrial particles; assay type: biochemical; conditions: submitochondrial particles, 30° C.; read-out: Complex I inhibition IC50
Sequence (P25708 21-464): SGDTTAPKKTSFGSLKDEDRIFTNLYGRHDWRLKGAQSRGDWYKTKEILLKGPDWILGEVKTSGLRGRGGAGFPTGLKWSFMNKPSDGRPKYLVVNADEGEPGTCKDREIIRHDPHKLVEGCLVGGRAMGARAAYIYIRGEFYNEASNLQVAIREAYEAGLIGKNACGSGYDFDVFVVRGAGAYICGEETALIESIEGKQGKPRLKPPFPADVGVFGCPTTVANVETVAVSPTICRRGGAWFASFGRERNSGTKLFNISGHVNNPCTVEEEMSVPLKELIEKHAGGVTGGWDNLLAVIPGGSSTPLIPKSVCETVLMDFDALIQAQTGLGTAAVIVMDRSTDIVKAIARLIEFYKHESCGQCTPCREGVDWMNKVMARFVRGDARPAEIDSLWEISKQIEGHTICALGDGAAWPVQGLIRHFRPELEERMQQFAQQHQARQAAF
Sequence (P42026 38-216): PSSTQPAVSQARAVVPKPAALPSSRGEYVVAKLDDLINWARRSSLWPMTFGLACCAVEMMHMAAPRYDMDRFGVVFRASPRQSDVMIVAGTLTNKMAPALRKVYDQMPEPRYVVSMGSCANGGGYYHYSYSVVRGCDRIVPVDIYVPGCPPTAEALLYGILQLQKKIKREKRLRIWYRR
Sequence (P17694 34-463): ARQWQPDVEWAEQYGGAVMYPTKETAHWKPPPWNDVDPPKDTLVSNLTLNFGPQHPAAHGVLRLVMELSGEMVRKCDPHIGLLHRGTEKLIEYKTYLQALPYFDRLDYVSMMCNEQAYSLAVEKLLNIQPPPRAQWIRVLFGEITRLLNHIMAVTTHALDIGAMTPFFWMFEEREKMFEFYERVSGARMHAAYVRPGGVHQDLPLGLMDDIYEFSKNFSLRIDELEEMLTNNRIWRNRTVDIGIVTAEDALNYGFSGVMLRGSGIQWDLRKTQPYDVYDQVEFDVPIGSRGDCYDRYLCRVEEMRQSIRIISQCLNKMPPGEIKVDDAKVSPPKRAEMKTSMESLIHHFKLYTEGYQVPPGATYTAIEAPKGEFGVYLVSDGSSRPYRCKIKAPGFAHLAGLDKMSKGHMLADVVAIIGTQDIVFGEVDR
Sequence (P15690 24-727, further chain): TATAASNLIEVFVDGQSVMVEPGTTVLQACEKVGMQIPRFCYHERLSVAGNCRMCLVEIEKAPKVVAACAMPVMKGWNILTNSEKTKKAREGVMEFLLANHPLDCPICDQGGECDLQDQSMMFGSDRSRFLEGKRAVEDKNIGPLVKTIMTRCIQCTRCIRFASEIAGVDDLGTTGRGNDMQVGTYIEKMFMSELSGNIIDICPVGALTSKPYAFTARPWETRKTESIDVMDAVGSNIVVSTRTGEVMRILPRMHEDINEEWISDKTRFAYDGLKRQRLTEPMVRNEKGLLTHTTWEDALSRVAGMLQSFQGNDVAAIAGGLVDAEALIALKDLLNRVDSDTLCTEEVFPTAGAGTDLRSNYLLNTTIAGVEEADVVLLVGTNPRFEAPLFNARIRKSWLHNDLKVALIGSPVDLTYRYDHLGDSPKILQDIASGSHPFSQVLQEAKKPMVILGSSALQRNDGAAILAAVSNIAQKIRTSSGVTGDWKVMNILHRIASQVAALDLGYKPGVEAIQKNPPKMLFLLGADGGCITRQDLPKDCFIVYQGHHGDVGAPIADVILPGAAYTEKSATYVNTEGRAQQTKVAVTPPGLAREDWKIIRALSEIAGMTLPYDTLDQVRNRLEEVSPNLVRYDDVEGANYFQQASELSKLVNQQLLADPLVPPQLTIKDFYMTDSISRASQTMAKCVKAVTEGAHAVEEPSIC
Sequence (P03887 whole entry): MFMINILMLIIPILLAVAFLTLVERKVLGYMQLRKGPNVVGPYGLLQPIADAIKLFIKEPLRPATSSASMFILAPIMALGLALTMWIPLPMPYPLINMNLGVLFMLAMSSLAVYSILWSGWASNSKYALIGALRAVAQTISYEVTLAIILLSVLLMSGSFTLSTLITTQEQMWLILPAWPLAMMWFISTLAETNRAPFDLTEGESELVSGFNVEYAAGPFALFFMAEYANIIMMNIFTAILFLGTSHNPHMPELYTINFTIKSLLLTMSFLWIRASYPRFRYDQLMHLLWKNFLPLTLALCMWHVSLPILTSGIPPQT
Sequence (P42028 37-212, further chain): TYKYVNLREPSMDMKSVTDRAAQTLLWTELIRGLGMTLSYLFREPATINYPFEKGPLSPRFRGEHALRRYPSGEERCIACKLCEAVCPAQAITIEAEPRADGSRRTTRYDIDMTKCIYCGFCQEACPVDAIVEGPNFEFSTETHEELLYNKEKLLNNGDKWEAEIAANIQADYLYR
Measured log10(IC50), listed per entry.
Parameter: log10(IC50) (log10 of the value in µM)

- Structure string: "CCCCCCCCCCCCCC1=C(O)C(=O)C=C(N(C)C)C1=O"
  log10(IC50): 0.18
- Structure string: "CCCCCCCCCCCCCC1=C(O)C(=O)C=C(NCCCC(=O)OCCCC)C1=O"
  log10(IC50): 1.04
- Structure string: "CCCCCCCCCCCCCC1=C(OC)C(=O)C=C(NCCCC(=O)OC(C)(C)C)C1=O"
  log10(IC50): 2.73
- Structure string: "CCCCCCCCCCCCCC1=C(O)C(=O)C=C(NCCCC(=O)O)C1=O"
  log10(IC50): 0.30
- Structure string: "CCCCCCCCCCCCCC1=C(O)C(=O)C=C(NCCCC(=O)OC(C)(C)C)C1=O"
  log10(IC50): 1.00
- Structure string: "CCCCCCCCCCCCCC1=C(OC)C(=O)C=C(NCCCC(=O)OCc2ccccc2)C1=O"
  log10(IC50): 1.53
- Structure string: "CCCCCCCCCCCCCC1=C(OC)C(=O)C=C(NCCCCCC)C1=O"
  log10(IC50): 2.68
- Structure string: "CCCCCCCCCCCCCC1=C(OC)C(=O)C=C(NCCCC(=O)O)C1=O"
  log10(IC50): 0.28
- Structure string: "CCCCCCCCCCCCCC1=C(OC)C(=O)C=C(N(C)CCCC(=O)OCCCCCC)C1=O"
  log10(IC50): 0.28

* * *

test system: Friedreich's ataxia lymphoblast cell line GM15850; assay: Cytoprotection (trypan blue exclusion assay) of DEM-treated FRDA lymphocytes; type: cell-based; conditions: Homo sapiens, GM15850; 0.1 μM; DEM alone 18 ± 10% viability; read-out: Cytoprotection (cell viability, % of untreated control)
Field 'label' (enum: Y / N). Set to Y when viability at 0.1 µM is strictly under 20%; else N.

- Structure string: "CCCCCCCCCCCCCC1=C(OC)C(=O)C=C(N(C)C)C1=O"
  Group label: "N"
- Structure string: "CCCCCCCCCCCCCC1=C(O)C(=O)C=C(NCCCCCC)C1=O"
  Group label: "Y"
- Structure string: "COC1=C2CCCCCCCCCCCCCCCNC(=CC1=O)C2=O"
  Group label: "N"
- Structure string: "CCCCCCCCCCCCCC1=C(O)C(=O)C=C(N(C)C)C1=O"
  Group label: "N"

* * *

Below is a list of entries, each paired with its recorded melting point value.

- Molecule: "COC1=C2CCCCCCCCCC=CCCCCNC(=CC1=O)C2=O [Compound 39]"
  melting point: "82 to 84 °C"
- Molecule: "CCCCCCCCCCCCCC1=C(OC)C(=O)C=C(NCCCCCC)C1=O [Compound 20]"
  melting point: "110 °C (dec.)"
- Molecule: "C=CCCCCCCCCCC1=C(OC)C(=O)C=C(NCCCCC=C)C1=O [Compound 38]"
  melting point: "45 to 46 °C"
- Molecule: "CCCCCCCCCCCCCC1=C(O)C(=O)C=C(NCCCC(=O)OC(C)(C)C)C1=O [Compound 6]"
  melting point: "96 to 97 °C"
